Test system: 786-0
Assay: NCI tumour cell line growth inhibition, 48 h
Active and inactive are the calls of the source. Rule as the data show it: active = GI50 up to about 1.1 µM and inactive = higher.
Your reply should match one of these outcome classes. class 1 (active), class 0 (inactive)

Would you please look over these solved cases?
Compound	Assayed target	Class assignment
C[C@H](NC(=O)c1ccc(CNC(=O)/C=C/c2cccc(Oc3ccccc3)c2)cc1)c1ccccc1	786-0	class 0
C1CNCCNCCN1	786-0	class 0
COc1cc2cc3c4c(cc(OC)c(OC)c4c2cc1OC)CCN3C(=O)OCCBr	786-0	class 0
C(#C[C@@]12CCC[C@@H]1NCO2)c1ccc2c(c1)OCO2	786-0	class 0
Cc1ccc([N+](=O)[O-])cc1S(=O)(=O)Nc1ccc(C2=NN(S(=O)(=O)c3cc([N+](=O)[O-])ccc3C)C(c3ccccc3O)C2)cc1 (configuration not stated)	786-0	class 0

IN: Called result for COc1cc2c(cc1OC)C1Cc3ccccc3CCN1CC2 (configuration not stated)
OUT: class 0

IN: What was the test verdict on C(=N\c1cc2cc(Sc3ccccc3)ccc2[nH]1)/c1ccccc1 ?
OUT: class 0

IN: What did this assay record as the result for C=C1CC2(CCOc3ccc(Cl)cc32)OC1=O (configuration not stated) ?
OUT: class 0

IN: Can you look up the reported call for NS(=O)(=O)OCCCCCCCOS(N)(=O)=O for me?
OUT: class 0

IN: Please indicate how the test categorized COCC(=O)OC1CCn2c1nc1c2C(=O)C(C)=C(NC(C)=O)C1=N (configuration not stated) .
OUT: class 0

IN: Give the logged outcome of this assay for the following compound: COC(=O)/C(=N\N)C(C(=O)C(=O)Nc1nnc(S)[nH]1)c1nc2ccc([N+](=O)[O-])cc2nc1O (configuration not stated)
OUT: class 0

IN: # outcome recorded in this test, key = Oc1ccc(C(O)(c2ccccc2)c2ccccc2)c2ccccc12
OUT: class 0

IN: GET /call?item= CN(C)C(=O)C(F)(F)C(c1ccccc1)C1C(=O)N(C)C(=O)N(C)C1=O (configuration not stated) returns the recorded outcome of this test.
OUT: class 0

IN: # fetch the recorded call for Cc1c(/C=N/NC(=S)Nc2ccc(Cl)cc2)c(=O)n(-c2ccccc2)n1C here
OUT: class 0

IN: How was C=CC(=O)N1C/C(=C\c2ccc(F)cc2)C(=O)/C(=C/c2ccc(F)cc2)C1 classified in this test?
OUT: class 1

IN: What outcome does the record of this test show for NC(CSC1c2ccccc2-c2ccccc21)C(=O)O (configuration not stated) ?
OUT: class 0

* * *

Tested on: SF-268
Experiment: NCI tumour cell line growth inhibition, 48 h
Calls of active or inactive are those of the source. Cut-off read from the data, not from the text of the source: active = GI50 up to about 1.1 µM and inactive = higher.
Reported GI50 is given for each of the following molecules.

> print(dat)
                                   molecule         result.value
1  Cn1c(=O)c2sc3cc4c(cc3c2c2ccccc21)sc1c(=O)n(C)c2ccccc2c14   59.7 µM (inactive)
2  COC(=O)C(COC(=O)/C=C/c1ccc(OC(C)=O)c(OC(C)=O)c1)NC(=O)/C=C/c1ccc(OC(C)=O)c(OC(C)=O)c1 (stereo not given)   > 10 µM (inactive)
3  CCOn1cc(C[C@@]2(O)C(=O)OC3[C@@H](O)CO[C@@]32O)c2ccccc21 (stereo not given in full)  > 100 µM (inactive)
4                                 N=C1SCCS1  > 100 µM (inactive)
5    O=C1C(Cl)=C(Cl)C(=O)C(CCNc2nccs2)=C1Cl   38.6 µM (inactive)
6  CC(NC(=O)c1ccccc1)NC(=O)C(C)C(=O)Nc1ccccc1 (stereo not given)   62.2 µM (inactive)

IN: What measured GI50 goes with C=CC[C@]1(C2=NC(C)(C)CO2)c2ccccc2-c2ccccc2[C@H]1C(C)=O ?
OUT: 10 µM (inactive)

IN: If you can, please state the reported GI50 value of C[C@H](NC(=O)C(C)(Cc1ccc(O)cn1)NC(=O)c1ccccc1)c1ccccc1 (stereo not given in full) .
OUT: > 100 µM (inactive)

IN: Fill blank: measured GI50 of the molecule CC1CCC(=O)C(C(=O)CC2CC(=O)NC(=O)C2)C1 (stereo not given) is ____.
OUT: > 100 µM (inactive)

IN: Look up GI50 for this molecule: Cc1cc(C)n(-c2nsc3ccccc23)n1
OUT: > 100 µM (inactive)

Data origin: ChEMBL document CHEMBL1201862
